Entry source: patent US6964975B2

Biological target: human EDG-2 (Homo sapiens, UniProt Q92633)
Construct: cDNA of the cloned human EDG-2 was introduced into pEFneo, which is an animal expression vector
Sequence (Q92633 whole entry): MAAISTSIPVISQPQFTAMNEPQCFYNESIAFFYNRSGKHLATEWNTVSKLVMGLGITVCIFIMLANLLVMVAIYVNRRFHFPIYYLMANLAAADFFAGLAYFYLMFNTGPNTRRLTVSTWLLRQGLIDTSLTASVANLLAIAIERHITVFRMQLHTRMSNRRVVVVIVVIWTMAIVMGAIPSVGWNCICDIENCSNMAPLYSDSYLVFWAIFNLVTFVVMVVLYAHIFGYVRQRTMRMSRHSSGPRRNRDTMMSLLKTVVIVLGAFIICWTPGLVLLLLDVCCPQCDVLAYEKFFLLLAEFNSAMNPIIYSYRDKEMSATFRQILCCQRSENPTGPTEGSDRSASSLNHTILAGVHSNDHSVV
Assay: Inhibitory activity on LPA-induced elevation of intracellular Ca2+ level
Conditions: 50% inhibition of elevation of intracellular Ca2+ level by LPA, human EDG-2/HepG2 cells, fura-2
reported-property: IC50 (µM)
Answers are plain numbers, in µM.

[[record]]
compound = "Cc1onc(-c2cccc(Br)c2)c1NC(=O)OC(C)c1ccccc1Cl (stereo not drawn) [Compound 13]"
target_or_test_system = "human EDG-2 (Homo sapiens, UniProt Q92633)"
reported_measurement = 30


Consider now this further compound.
# IC50 lookup, item Cc1noc(-c2ccc(Cl)nc2)c1NC(=O)OC(C)c1ccccc1Cl (stereo not drawn) [Compound 63] 30

###

I'd appreciate it if you could supply IC50 values for the items below.
Biological target: human EDG-2 (Homo sapiens, UniProt Q92633)
Construct: cDNA of the cloned human EDG-2 was introduced into pEFneo, which is an animal expression vector
Test: Inhibitory activity on LPA-induced elevation of intracellular Ca2+ level
Details: 50% inhibition of elevation of intracellular Ca2+ level by LPA, human EDG-2/HepG2 cells, fura-2

# annotated cases, reported IC50 shown
[[record]]
compound = "CCCCC(C)OC(=O)Nc1c(-c2ccccc2)noc1C (stereo not shown) [Compound 101]"
reported_property = "IC50"
reported_measurement = "30 to 100 µM"

[[record]]
compound = "CCc1noc(-c2ccc(CCl)cc2)c1NC(=O)OC(C)c1ccccc1F (stereo not shown) [Compound 160]"
reported_property = "IC50"
reported_measurement = "3 to 10 µM"

[[record]]
compound = "Cc1noc(-c2ccc(Br)o2)c1NC(=O)OC(C)c1ccccc1Cl (stereo not shown) [Compound 73]"
reported_property = "IC50"
reported_measurement = "1 to 3 µM"


# IC50 lookup, item Cc1noc(-c2ccc(CNCCc3ccncc3)cc2)c1NC(=O)OC(C)c1ccccc1Cl (stereo not shown) [Compound 111] 10 to 30 µM

###

Target: human EDG-2 (Homo sapiens)
Construct: cDNA of the cloned human EDG-2 was introduced into pEFneo, which is an animal expression vector
Test: Inhibitory activity on LPA-induced elevation of intracellular Ca2+ level
Conditions: 50% inhibition of elevation of intracellular Ca2+ level by LPA, human EDG-2/HepG2 cells, fura-2
I'd appreciate it if you could supply IC50 values for the items below.

# annotated cases, reported IC50 shown
[[record]]
compound = "Cc1noc(-c2ccc(CSCCCS(=O)(=O)O)cc2)c1NC(=O)OC(C)c1ccccc1Cl (stereo not shown) [Compound 152]"
reported_measurement = "3 to 10 µM"

[[record]]
compound = "CNC(=O)CSCc1ccc(-c2onc(C)c2NC(=O)OC(C)c2ccccc2Cl)cc1 (stereo not shown) [Compound 138]"
reported_measurement = "3 to 10 µM"

[[record]]
compound = "Cc1noc(-c2ccc([N+](=O)[O-])cc2)c1NC(=O)OC(C)c1ccccc1Cl (stereo not shown) [Compound 55]"
reported_measurement = "3 to 10 µM"


Consider now this further compound.
# IC50 lookup, item Cc1noc(-c2ccc(CN3CC(C)OC(C)C3)cc2)c1NC(=O)OC(C)c1ccccc1Cl (stereo not shown) [Compound 89] 10 to 30 µM

###

Target: human EDG-2 (Homo sapiens, UniProt Q92633)
Construct: cDNA of the cloned human EDG-2 was introduced into pEFneo, which is an animal expression vector
Assay: Inhibitory activity on LPA-induced elevation of intracellular Ca2+ level
Conditions: 50% inhibition of elevation of intracellular Ca2+ level by LPA, human EDG-2/HepG2 cells, fura-2
pIC50: −log10 of the molar value.
I'd appreciate it if you could supply pIC50 values for the items below.

[[record]]
molecule = "Cc1onc(-c2ccccc2)c1NC(=O)OC(C)c1ccccc1 (stereo not drawn)"
target_or_test_system = "human EDG-2 (Homo sapiens, UniProt Q92633)"
reported_property = "pIC50"
reported_measurement = "4.00 to 4.52"

[[record]]
molecule = "Cc1ccccc1C(C)OC(=O)Nc1c(-c2ccccc2)noc1C (stereo not drawn)"
target_or_test_system = "human EDG-2 (Homo sapiens, UniProt Q92633)"
reported_property = "pIC50"
reported_measurement = "4.00 to 4.52"


# pIC50 lookup, item CC(OC(=O)Nc1c(Cl)nsc1-c1ccccc1Cl)c1ccccc1 (stereo not drawn) 4.00 to 4.52

###

Target: human EDG-2 (Homo sapiens)
Construct: cDNA of the cloned human EDG-2 was introduced into pEFneo, which is an animal expression vector
Assay: Inhibitory activity on LPA-induced elevation of intracellular Ca2+ level
Settings: 50% inhibition of elevation of intracellular Ca2+ level by LPA, human EDG-2/HepG2 cells, fura-2
I'd appreciate it if you could supply IC50 values for the items below.

[[record]]
compound = "Cc1noc(-c2ccc(CSCCC(=O)O)cc2)c1NC(=O)OC(c1ccccc1)C(F)(F)F (stereo not shown)"
reported_property = "IC50"
reported_measurement = "3 to 10 µM"

[[record]]
compound = "Cc1noc(-c2cccc(F)c2)c1NC(=O)OC(C)c1ccccc1F (stereo not shown)"
reported_property = "IC50"
reported_measurement = "10 µM"

[[record]]
compound = "Cc1noc(-c2c(-c3ccccc3)noc2C)c1NC(=O)OC(C)c1ccccc1Cl (stereo not shown)"
reported_property = "IC50"
reported_measurement = "10 to 30 µM"

[[record]]
compound = "CCc1noc(-c2ccc(CSCCC(=O)O)cc2)c1NC(=O)OC(C)c1ccccc1Cl (stereo not shown)"
reported_property = "IC50"
reported_measurement = "3 to 10 µM"

[[record]]
compound = "Cc1onc(-c2ccccc2)c1NC(=O)OCCc1ccccc1"
reported_property = "IC50"
reported_measurement = "30 to 100 µM"

[[record]]
compound = "Cc1noc(-c2cccc([N+](=O)[O-])c2)c1NC(=O)OC(C)c1ccccc1Cl (stereo not shown)"
reported_property = "IC50"
reported_measurement = "3 to 10 µM"


Consider now this further compound.
Notebook: pull reported IC50 for human EDG-2 (Homo sapiens), entry Cc1noc(-c2cccc(CSCCc3ccccc3)c2)c1NC(=O)OC(C)c1ccccc1Cl (stereo not shown) 3 to 10 µM
